Target: T1, Drosophila Numb PTB domain (aa 65–203) (Drosophila, UniProt P16554-1 65-203)
T1 chain: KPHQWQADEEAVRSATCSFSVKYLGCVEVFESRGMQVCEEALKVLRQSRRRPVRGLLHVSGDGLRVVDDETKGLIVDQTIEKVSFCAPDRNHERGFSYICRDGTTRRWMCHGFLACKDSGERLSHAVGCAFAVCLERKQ
Experiment: ITC
pKd: −log10 of the molar value.
Measurement type: pKd

1. KKKKREHACFENPGLNLELPEKQFAAYEVVRSA [Pon single-AB fragment with N152,P153A in the B2 motif]
2. KKKKREHACFENPGLNLELPEAQFNPYEVVRSA [Pon A2B2 K149A]
Looking at recorded values for pKd, does 1 or 2 come in lower? Give the label under which the chosen entry appears.
1
(1: 4.31, 2: 5.26)

# credit: paper PMC5821850
